SYSTEM TESTED: T1, mouse glucagon receptor (mGR) (mouse, UniProt Q61606 27-485)
T1 construct: whole, on cells; Assay used crude plasma membranes of the expressing 293HEK cells
T1 sequence (Q61606 27-485): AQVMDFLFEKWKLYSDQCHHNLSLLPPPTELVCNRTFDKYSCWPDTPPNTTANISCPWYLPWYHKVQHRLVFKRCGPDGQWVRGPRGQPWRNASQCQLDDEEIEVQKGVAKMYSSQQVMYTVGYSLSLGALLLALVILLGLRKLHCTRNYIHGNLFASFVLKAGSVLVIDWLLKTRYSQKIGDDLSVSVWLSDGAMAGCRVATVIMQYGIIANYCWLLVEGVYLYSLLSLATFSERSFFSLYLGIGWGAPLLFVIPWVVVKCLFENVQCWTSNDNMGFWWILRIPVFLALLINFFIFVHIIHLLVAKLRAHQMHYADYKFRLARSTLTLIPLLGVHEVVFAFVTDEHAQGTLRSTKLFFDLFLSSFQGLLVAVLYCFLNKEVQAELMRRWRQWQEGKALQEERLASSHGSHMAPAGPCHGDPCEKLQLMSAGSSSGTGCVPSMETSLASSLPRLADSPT
MEASUREMENT PROTOCOL: SPA competition against 125I-labelled glucagon on 293HEK mGR membranes, Cheng-Prusoff
Non-standard residues stand in square brackets, D forms with d. No end group written: not given here. Aib = CC(C)(N)C(=O)O
REPORTED PROPERTY: Ki (nM)
# output: bare number, implied unit nM

Lookup: Would you kindly share the measured Ki for YSQGTFTSDYSKYLD[Aib]KKAQEFVEWLLKTGPSSGAPPKSK-NH2 (also: acetate salt, Synthetic peptide made on Rink amide resin; acetate salt) [compound of SEQ ID NO: 2] ?
Found: 1.82
